Source listed as patent US20250066476A1.

# ASSAYED_SYSTEM: T1, human PSMA (Prostate Specific Membrane Antigen, Glutamate Carboxypeptidase II) (human, UniProt Q04609 1-750)
# T1 construct: whole, on cells; the cell line is named under assay; also called FOLH1
# T1 sequence (Q04609 whole entry): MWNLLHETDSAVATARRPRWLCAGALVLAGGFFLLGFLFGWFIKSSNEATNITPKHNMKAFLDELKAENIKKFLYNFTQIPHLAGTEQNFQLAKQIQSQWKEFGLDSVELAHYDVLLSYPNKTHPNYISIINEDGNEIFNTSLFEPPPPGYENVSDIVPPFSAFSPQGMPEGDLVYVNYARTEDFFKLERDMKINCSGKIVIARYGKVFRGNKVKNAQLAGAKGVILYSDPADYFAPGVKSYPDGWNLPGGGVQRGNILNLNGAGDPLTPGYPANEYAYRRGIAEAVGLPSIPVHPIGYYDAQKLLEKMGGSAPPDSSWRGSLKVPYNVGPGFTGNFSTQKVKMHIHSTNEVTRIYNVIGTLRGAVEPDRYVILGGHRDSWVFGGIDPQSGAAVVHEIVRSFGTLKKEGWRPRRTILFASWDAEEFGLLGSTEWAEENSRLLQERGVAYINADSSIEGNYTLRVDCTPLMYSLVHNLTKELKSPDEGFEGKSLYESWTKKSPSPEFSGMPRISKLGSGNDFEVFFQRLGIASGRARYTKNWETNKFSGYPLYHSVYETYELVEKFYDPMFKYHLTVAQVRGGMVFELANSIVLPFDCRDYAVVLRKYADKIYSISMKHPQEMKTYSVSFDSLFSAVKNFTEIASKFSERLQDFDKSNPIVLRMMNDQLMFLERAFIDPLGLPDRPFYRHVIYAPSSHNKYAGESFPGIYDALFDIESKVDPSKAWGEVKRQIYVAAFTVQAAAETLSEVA
# ASSAY_NAME: flow cytometry on LNCaP cells
So basically every entry gets a class from its fold over the background MFI signal, ranges being range 1: < 60 fold over background MFI; range 2: ≥ 60 fold over background MFI and < 200 fold over background MFI; range 3: ≥ 200 fold over background MFI

{"BINDER": "anti-PSMA heavy-chain antibody clone ID 325867 (antibody, V domains shown, heavy chain-only antibody (UniAb/HCAb)) VH: QVQLVESGGGVVQPGRSLRLSCAASGFSFRSYGMHWVRQAPGKGLEWVAVIWYDGSNKYYADSVKGRFTISRDYSKNTLYLQMNSLRAEDTAVYYCAREPRIGYYYESSGYDSLDYRGQGTLVTVSS", "DISCRETE_LABEL": "range 3"}
{"BINDER": "anti-PSMA heavy-chain antibody clone ID 345510 (antibody, V domains shown, heavy chain-only antibody (UniAb/HCAb)) VH: QVQLVESGGGVVQPGRSLRLSCAASGFSFSSYGMHWVRQAPGKGLEWVAVIWYDGSNKYYADSVKGRFTISRDNSKNTMYLQMNSLRAEDTAVYYCAREPRIGYYYESSGYYSLDYRGQGTLVTVSS", "DISCRETE_LABEL": "range 1"}
{"BINDER": "anti-PSMA heavy-chain antibody clone ID 345497 (antibody, V domains shown, heavy chain-only antibody (UniAb/HCAb); also called HCAb 345497) VH: QVQLVESGGGVVQPGRSLRLSCAASGFSFSRYGMHWVRQAPGKGLEGVAVIWYDGSNRYYADSVKGRFTISRDNSKNTLYLQMNSLRAEDTAVYYCAREPRIGYYYESSGYYSLDYRGQGTLVTVSS", "DISCRETE_LABEL": "range 2"}
{"BINDER": "anti-PSMA heavy-chain antibody clone ID 345447 (antibody, V domains shown, heavy chain-only antibody (UniAb/HCAb)) VH: QVQLVESGGGVVQPGRSLRLSCAASGFSFSSYGMHWVRQAPGKGLEGVAVISYDGSNRYYADSVKGRFTISRDNSKNTLYLQMNSLRAEDTAVYYCAREPRIGYYYESSGYYSLDYRGQGTLVTVSS", "DISCRETE_LABEL": "range 1"}
{"BINDER": "anti-PSMA heavy-chain antibody clone ID 345493 (antibody, V domains shown, heavy chain-only antibody (UniAb/HCAb)) VH: QVQLVESGGGVVQPGRSLRLSCAASGFSFSRYGMHWVRQAPGKGLEWVAVIWYDGSNRYYADSVKGRFTISRDNSKNTLYLQMNSLRAEDTAVYYCAREPRIGYYYESSGYYSLDYRGQGTLVTVSS", "DISCRETE_LABEL": "range 2"}
{"BINDER": "anti-PSMA heavy-chain antibody clone ID 325920 (antibody, V domains shown, heavy chain-only antibody (UniAb/HCAb)) VH: QLQLQESGPGLVKPSETLSLTCTVSGGSISSSSYYWGWIRQPPGKGLEWIGSIDYSGYTYYNPSLQSRVTISVDTSKNQFSLKLSSVTAADTAVYNCARHKAATADFDYRGQGTLVTVSS", "DISCRETE_LABEL": "range 3"}
{"BINDER": "anti-PSMA heavy-chain antibody clone ID 326027 (antibody, V domains shown, heavy chain-only antibody (UniAb/HCAb)) VH: QVQLVESGGGVVQPGRSLRLSCAASGFSFRSYGMHWVRQAPGKGLEWVAVIWYDGSNKYYADSVKGRFTISRDNSKNTLYLQMNSLRAEDTAVYYCAREPRIGYYYDSSGYDSLDYRGQGTLVTVSS", "DISCRETE_LABEL": "range 2"}
{"BINDER": "anti-PSMA heavy-chain antibody clone ID 345509 (antibody, V domains shown, heavy chain-only antibody (UniAb/HCAb)) VH: QVQLVESGGGLVQPGGSLRLSCAASGFSFSSYGMHWVRQAPGKGLEGVAVIWYDGSNKYYADSVKGRFTISRDNSKNTMYLQMNSLRAEDTAVYYCAREPRIGYYYESSGYYSLDYRGQGTLVTVSS", "DISCRETE_LABEL": "range 1"}
{"BINDER": "anti-PSMA heavy-chain antibody clone ID 346172 (antibody, V domains shown, heavy chain-only antibody (UniAb/HCAb)) VH: QLQLQESGPGLVKPSETLSLTCTVSGGSISSSSYYWGWIRQPPGKGLEWIGSIDYSGYTYYNPSLKSRVTISVDTSKNQFSLKLSSVTAADTAVYNCARHKAATADFDYRGQGTLVTVSS", "DISCRETE_LABEL": "range 3"}
{"BINDER": "anti-PSMA heavy-chain antibody clone ID 345463 (antibody, V domains shown, heavy chain-only antibody (UniAb/HCAb)) VH: QVQLVESGGGVVQPGRSLRLSCAASGFIFRSYGMHWVRQAPGKGPEWVAVIWYDGSNKYYADSVKGRFTISRDNSKNTLYLQMNSLRAEDTAVYYCAREPRIGYYYESSGYYSLDYRGQGTLVTVSS", "DISCRETE_LABEL": "range 2"}
{"BINDER": "anti-PSMA heavy-chain antibody clone ID 345444 (antibody, V domains shown, heavy chain-only antibody (UniAb/HCAb)) VH: QVQLVESGGGVVQPGRSLRLSCAASGFTFSSYGMHWVRQAPGKGLEGVAVIWYDGSNRYYADSVKGRFTISRDNSKNTLYLQMNSLRAEDTAVYYCAREPRIGYYYESSGYYSLDYRGQGTLVTVSS", "DISCRETE_LABEL": "range 1"}
{"BINDER": "anti-PSMA heavy-chain antibody clone ID 325836 (antibody, V domains shown, heavy chain-only antibody (UniAb/HCAb)) VH: QVQLVESGGGVVQPGRSLRLSCAASGFSFRSYGMHWVRQAPGKGLEWVAVIWYDGSNKYYADSVKGRFTISRDYSKNTLYLQMNSLRAEDTAVYYCAREPRIGYYYDSSGYDSLDYRGQGTLVTVSS", "DISCRETE_LABEL": "range 2"}
{"BINDER": "anti-PSMA heavy-chain antibody clone ID 346181 (antibody, V domains shown, heavy chain-only antibody (UniAb/HCAb)) VH: QLQLQESGPGLVKPSETLSLTCTVSGGSISSSNYFWGWIRQSPGKGLEWIGSIDYSGYTYYNPSLKSRVTISVDTSKNQFSLKLSSVTAADTAVYNCARHKAATADFDYRGQGTLVTVSS", "DISCRETE_LABEL": "range 3"}
{"BINDER": "anti-PSMA heavy-chain antibody clone ID 345436 (antibody, V domains shown, heavy chain-only antibody (UniAb/HCAb)) VH: QVQLVESGGGVVQPGRSLRLSCAASGFSFSRYGMHWVRQAPGKGLEGVAVIWYDGSNKYYADSVKGRFTISRDNSKNTLYLQMNSLRAEDTAVYYCAREPRIGYYYESSGYYSLDYRGQGTLVTVSS", "DISCRETE_LABEL": "range 2"}
